- System: CEM cells HIV-1 protection, formazan growth assay
- Method Notes: NCI AIDS Antiviral Assay;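 active = compounds giving half or more protection of infected cells from virus-caused growth loss, again on retest; inactive = the rest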
Your answer must be one of the following: Yes for active, No for inactive

Record lookup: outcome of this test for O=[N+]([O-])c1ccc(C2OCC3CSCN32)cc1 (stereo not given) ?
No

Record lookup: outcome of this test for CC1(CCc2ccccc2)CC1(Br)Br (stereo not given) ?
No

State the result this test recorded for "Cc1cc(-c2cccs2)oc(=O)c1NC(=O)c1ccccc1" .
No

Called result for "N=c1oc2ccc(Cl)cc2cc1C(=O)NCc1ccccc1"
No

What outcome does the record of this test show for "Cc1nnc(NS(=O)(=O)c2ccc(N=Nc3cc4ccccc4c(C(=O)O)c3O)cc2)s1" ?
No

Name the outcome recorded for "C[C@@H](Br)[C@@H]1CC[C@H]2c3[nH]c4ccccc4c3CCN2C1" in the assay.
No

Answer briefly: the call reported for "CC(=O)N(C(C)=O)n1c(Cc2ccc(C)cc2)nn(C(C)=O)c1=O" in this assay.
No

Could you kindly confirm the outcome this assay logged for "CCOC(=O)CCCN(c1[nH]c(C)c(C)c1C#N)S(=O)(=O)c1ccc(C)cc1" ?
No

Test call, this molecule: "CN(CCSSCCN(C)/N=C/c1ccccc1)/N=C/c1ccccc1"
No

Identify the outcome logged in this assay for the molecule shown: "O=C1C=C(Nc2ccc(Cl)cc2Cl)c2ccccc2C1=O"
No

Look up the recorded call for "N#C/C(=C\c1ccc2ccccc2c1)c1ccccc1" in this test.
No

Kindly provide the recorded test outcome for the following molecule: "Oc1ccc(C(O)(c2ccccc2)c2ccccc2)cc1"
No

Recorded test outcome, item "CC1(C)CC(=O)C(/C=N/C(=S)Nc2ccc(S(N)(=O)=O)cc2)=C(O)C1"
No

For this molecule, state the assay outcome: "Cc1nc2ccc(S(=O)(=O)Nc3ccccc3)cc2c(=O)n1NC(=O)CNc1ccccc1"
No

Record lookup: outcome of this test for "N#CCCN(CCC#N)c1ccc(/C=C2\N=C(c3ccccc3)N(NC(=O)c3ccncc3)C2=O)cc1" ?
No

Check the results log: what was the call for "CS(=O)(=O)Sc1ccccc1C(=O)O" ?
No

What call does the record list for N#Cc1ccccc1NC(=O)C(=O)C(C(=O)c1ccncc1)C1OC(=O)c2ccccc21 (stereo not given) ?
No

Outcome? O=C1c2cc3c(cc2CC1Br)CCC3 (stereo not given)
No

Hello, I am checking results. What call was entered for "O=c1sc2c(s1)SSSSS2" ?
No

Assay result, entry "CCOC(=O)[C@]12C(=C(c3ccccc3)O[C@H]3C=CCC[C@H]31)C(=O)C(=O)N2c1ccccc1" — outcome?
No

# fetch the recorded call for "CC1=C(C)C(=O)C2=C(OCCCO2)C1=O" here
No

What outcome does the record of this test show for "CCN(CC)C1=CC(=O)n2cccc21" ?
No

Which result was noted for this molecule in the test: "CN(C)CCC(CCN(C)C)=NO"
No

Recorded test call requested for COC(=O)C1=C(C(=O)OC)C2OC1C1C2C2(C)C(C)=C(C)C1(C)S2=O (stereo not given)
No

In this assay, the call recorded for "O=C(Nc1ccc(F)cc1)Nc1ccc(Nc2ccccc2)cc1" was what?
No

GET /call?item= "CC1(C)CC(=O)c2c(N)n[nH]c2C1" returns the recorded outcome of this test.
No

Write down the call the test reported for this molecule. Item: "Cc1c(/C=N/N(C)C)oc2c1cc(O)c1ncccc12"
No

Record lookup: outcome of this test for "CC1=C(C(=O)CC(=O)C(=O)Nc2cccc(Cl)c2C)Sc2ccccc2N1" ?
No

So what was the verdict on "COC(=O)c1cc(C(=CCCCCCl)c2cc(Cl)c(OC)c(C(=O)OC)c2)cc(Cl)c1OC" in this test?
Yes

Recorded test outcome, item CC(C)N(C(=O)C12C3C4C5(C#N)C3C1(I)C5C42I)C(C)C (stereo not given)
No

Could you check what this test reported for "Fc1ccc(/C=N\N=C(N/N=C/c2ccc(F)cc2)N/N=C/c2ccc(F)cc2)cc1" ?
No

I'd appreciate the recorded outcome for "CCOP(=O)(OCC)/C(C#N)=C\c1ccsc1" from this test.
No

Hi, do you know how CC(=O)NC(CCCCN)C(=O)NCc1ccccc1 (stereo not given) came out in this test?
No

Could you kindly confirm the outcome this assay logged for N#Cc1cccc(C2C(=O)c3ccc(C(=O)c4ccc5c(c4)C(=O)N(c4ccc(Oc6ccc(N7C(=O)c8ccc(C(=O)c9ccc%10c(c9)C(=O)N(c9cccc(C#N)c9)C%10=O)cc8C7=O)cc6)cc4)C5=O)cc3C2=O)c1 (stereo not given) ?
No

Could you check what this test reported for CCOC(=O)C1=C(C)NC(=O)NC1c1ccccc1 (stereo not given) ?
No

Just curious, what result did "Fc1cccc2c(=S)cn[nH]c12" get here?
No

Each molecule tested received a call. Report the one for "CC(C)OP(=O)(OC(C)C)C(=Nc1ccccc1)NNc1ccc([N+](=O)[O-])cc1" .
No

Give the logged outcome of this assay for the following molecule: OCCN1C(c2ccccc2)=CN2C=CSC21 (stereo not given)
No

State the result this test recorded for CCOP(=S)(N/N=C1/C2(C)CCC(C2)C1(C)C)OCC (stereo not given) .
No

Dear colleague, could you share the recorded outcome for "CCC1=NC(N/N=C/c2ccco2)=N/C1=C\c1ccccc1O" when you have a moment?
No

Short answer needed: outcome of this test for "O=C1Cc2ccccc2CCc2ccccc21" ?
No

Name the outcome recorded for "C=C1CN(C(=O)c2cc3cc(OC)c(OC)c(OC)c3[nH]2)c2cc([N+](=O)[O-])ccc21" in the assay.
No

Hello, I am checking results. What call was entered for "COc1ccc(/C=C2\CN(C)C/C(=C\c3ccc(OC)cc3)C2=O)cc1" ?
No

Kindly provide the recorded test outcome for the following molecule: "N#CNC(N)=NCCO"
No
